tested on: MALME-3M melanoma; assay: NCI tumour cell line growth inhibition, 48 h
*1 amine or outer side, *2 acyl side, *3 side chain or, on linkers, in order; H or OH if unused. Where a SMILES comes first, the peptide text is derived from it. [ ]: non-standard residue; d: D form. ξ: configuration not given here. X21 = CC[C@@H](C)C(N[*:1])C(=O)[*:2]; ξR = N=C(N)NCCCC(N)C(=O)O; ξI = CCC(C)C(N)C(=O)O; ξL = CC(C)CC(N)C(=O)O; ξK = NCCCCC(N)C(=O)O; ξV = CC(C)C(N)C(=O)O; ξA = CC(N)C(=O)O
quantity.name: TGI

# molecule "C=C(C)[C@@H]1CCC2=C[C@H](CC(C)=CC3=CC(C)=C(O3)[C@@H]1OC)OC2=O" ; its TGI = > 100 µM

molecule C=C1C[C@@]2(C)C(CC[C@]3(C)C2CC=C2C4CC(C)(C)C[C@@H](OC(=O)/C(C)=C\C)[C@]4(C(=O)O)CC[C@]23C)C(C)(C)C1=O (some centres not stated) , TGI observed: 15.6 µM

Lookup result for "Cn1c(=O)c(Oc2ccccc2)cc2cnc(NC3CCOCC3)nc21" ; measured TGI: > 25 µM

What the record says about c1ccc2nc(CCC3CCCCN3)ccc2c1 (configuration not stated) : TGI is > 100 µM

Notebook: CCC(C)C1NC(=O)C(CC(C)C)NC(=O)C(C)NC(=O)C(C(C)C)NC(=O)C(CCCCN)NC(=O)C(CC(C)C)NC(=O)C(C(C)C)NC(=O)[C@H](C)NC(=O)C(C(C)CC)NC(=O)C(CCCN=C(N)N)NC(=O)C(CCCCN)NC(=O)C(CCCN=C(N)N)NC(=O)C(CCCCN)NC(=O)C([C@H](C)CC)NC(=O)C(CCCCN)NC1=O (some centres not stated) (cyclo(A[ξV][ξL][ξK][ξV][ξA][ξL][ξI][ξK][X21][ξK][ξR][ξK][ξR][ξI])) , TGI read as 2.58 µM

Value of TGI reported for the molecule CC1(C)CC2(C)CC1CC2NC(=O)CCN1CCOCC1 (configuration not stated) is > 100 µM

Reported TGI of C/C(=N\N=C(N)N)C(CN(C)C)C(c1ccccc1)c1c(O)c2ccccc2oc1=O (configuration not stated) : > 100 µM

====

Would you kindly list TGI for each of these compounds?
tested on: SN12C renal; test: NCI tumour cell line growth inhibition, 48 h

Entry CCOP(=O)(OCC)C1=NC=CC=CC1n1c(-c2ccccc2)nn(CC)c1=O (stereo unspecified) , TGI reported as > 100 µM

Lab note: measured TGI of "Cc1ccc2c(c1)CNc1ccc(C)cc1CN2" was > 100 µM

# TGI (compound: "COc1cc(/C=C2\C(=O)Nc3cccc(Cl)c32)cc(OC)c1OC" ) is > 100 µM

Short answer for "N#Cc1c(N)nc(N2CCOCC2)c(C#N)c1-c1ccccc1Cl" : TGI was > 100 µM

Entry "CC(C)Nc1ncc2cc(Oc3ccc(F)cc3F)c(=O)n(C)c2n1" , TGI reported as > 25 µM

Item: "CC(=O)/C=C/c1ccc(C)cc1" | TGI: > 100 µM

====

Please respond with reported GI50 for every item in the list.
system: HL-60(TB) leukemia; assay: NCI tumour cell line growth inhibition, 48 h

Form field GI50, entry "C=C1C(=O)O[C@H]2[C@H]1CC/C(COC(=O)c1ccccc1)=C\CC[C@@]1(C)O[C@@H]21" : 0.981 µM

Per the records, this molecule ( "O=C1NN(c2ccccc2)C(=O)/C1=C/c1ccc(Br)o1" ) has GI50 equal to 10.5 µM

Record summary for "CCSc1nnc(-c2ccc3ccccc3c2O)n1-c1ccc(Cl)cc1" : reported GI50 = 7.16 µM

Reported GI50 of "COc1ccc2c(c1)/C(=C/c1cc(OC)c(OC)c(OC)c1)C(=O)N2C" : 1.46 µM

GI50 in this record for "O=C(Nc1cccc(-n2cc(-c3ccncc3)c(-c3ccc(O)c(Cl)c3)n2)c1)Nc1cccc(C(F)(F)F)c1" : 2.83 µM

For reference, reported GI50 for "Cc1[nH]nc2c1N=C(c1ccccc1Cl)c1cc([N+](=O)[O-])ccc1N2" stands at 0.104 µM

Form: molecule = "COc1cc2c(cc1OCCCCOc1ccc(-c3nc4ccccc4s3)cc1)N=C[C@@H]1CCCN1C2=O" ; GI50 = 0.384 µM

Reported GI50 ( "CNCCCNCCCN1C(=O)c2ccc3c4c(ccc(c24)C1=O)C(=O)N(CCCNCc1ccccc1OC)C3=O" ) = 2 µM

Memo: "OCc1ccc(N(CCN2CCCC2)Cc2ccc(F)cc2)cc1Cl" , reported GI50: 25.1 µM

====

test system: SNB-19 CNS; experiment: NCI tumour cell line growth inhibition, 48 h
Answer each item with its documented TGI.

Record "COc1ccc(/C=N/NC(=O)c2cnc3[nH]c(=O)n(C)c(=O)c3c2)cc1" . Reported TGI: 98.8 µM

Record "Nc1nc(-c2cccc([N+](=O)[O-])c2)cc(-c2cc(-c3cccc([N+](=O)[O-])c3)nc(N)n2)n1" . Reported TGI: > 100 µM

Recorded TGI (compound N#CC1CC2(C(=O)C1=O)c1ccccc1-c1ccccc12 (centres undefined) ): > 100 µM

Kindly note the recorded TGI for "COc1cc(/C=C(\OC(C)=O)c2ccc3c(c2)OCO3)cc(OC)c1OC" , which is > 100 µM

// field: TGI; key: "Cc1nc2ccccc2n1Cc1nnc(N)o1" ; value = > 100 µM

Lookup result for "COc1ccccc1/C=C/C(=O)/C=C/c1ccccc1OC" ; measured TGI: 4.1 µM

The recorded TGI for entry Cc1ccc(C(=O)Nc2ccc(S(=O)(=O)O)c3cc(S(=O)(=O)O)cc(S(=O)(=O)O)c23)cc1NC(=O)c1cccc(NC(=O)Nc2cccc(C(=O)Nc3cc(C(=O)Nc4ccc(S(=O)(=O)O)c5cc(S(=O)(=O)O)cc(S(=O)(=O)O)c45)ccc3C)c2)c1 (tested in a mixture with another compound) equals > 50 µM

compound "O=C1C(NCCN2CCOCC2)=C(Cl)C(=O)c2ncccc21" , TGI observed: 2.75 µM

TGI recorded for this compound, N#CC1C2CCC3(CC2CCN1C(=O)c1ccccc1)OCCO3 (centres undefined) , is > 100 µM

// TGI lookup, compound = "O=C(N/N=C\c1ccccc1)Nc1cccc2ccccc12" , result: > 100 µM

For CCOC(=O)C(C(=O)OCC)=C1NC2(c3ccccc3Nc3ccc(C)cc32)C(C(=O)OC)S1 (centres undefined) the compound record lists TGI as > 100 µM

get_value(item= "NC(=O)c1nnsc1NC=O" , readout=TGI) returns > 100 µM

Data point: "NC(=O)c1ccc2nc3c(n2c1)C(=O)C(=O)c1ccccc1-3" ; TGI = 2.31 µM

Entry "O=C(OCCC12CC3CC(CC(C3)C1)C2)c1ccc(NCc2cc(O)ccc2O)cc1" — recorded TGI = 3.23 µM

Query "c1ccc(N=C2SC3=NCCN3C2=Nc2ccccc2)cc1" yields TGI of 32.5 µM

Form: compound = "COc1ccc(Oc2nc(C#CC(C)(C)O)nc(Oc3ccc(OC)cc3)n2)cc1" ; TGI = 41 µM

Lab note: CC1(C)CCC(=O)NC1CC(=O)CC1NC(=O)CCC1(C)C (centres undefined) gave TGI of > 100 µM

response.value for "Clc1nc(Cl)c(CBr)c(Cl)n1" (field: TGI) = 33.3 µM

// field: TGI; key: "CCOC(=O)c1cc(C(=O)c2cc(OC)c(OC)c(OC)c2)n2ccccc12" ; value = > 100 µM

Recorded TGI (compound "c1ccc(C2=NCCc3cc4c(cc32)OCO4)cc1" ): > 100 µM

The recorded TGI for entry "O=C(c1ccc(Cl)cc1)c1ccc(OCCSCCCCCCCCCCSCCOc2ccc(C(=O)c3ccc(Cl)cc3)cc2)cc1" equals > 100 µM

Measured TGI, NC1CC(=O)c2sccc21 (centres undefined) : > 100 µM

// TGI lookup, compound = "COc1ccc(/C=C/NC=O)cc1" , result: > 100 µM

Lab book: TGI of "NC1(C(=O)O)CCCC1" noted as > 99.1 µM

====

system: OVCAR-5 ovarian; test: NCI tumour cell line growth inhibition, 48 h
quantity.name: TGI

Lab note: "NC1=Nc2cc(OCCCN3Cc4ccccc4C3)c(OCC3CC3)cc2C12CCCC2" gave TGI of 19.1 µM

Form: molecule = c1ccc2nc(CCC3CCCCN3)ccc2c1 (stereo not given) ; TGI = > 100 µM

Query "COc1cc2c(cc1OC)-c1cc3cc(OC)c(OC)cc3c(=O)n1CC2" yields TGI of > 100 µM

Summary for this molecule, "COc1ccc(Oc2nc(C#CC(C)(C)O)nc(Oc3ccc(OC)cc3)n2)cc1" : TGI is 16.6 µM

Record summary for "COc1cc(/C=C(\OC(C)=O)c2ccc3c(c2)OCO3)cc(OC)c1OC" : reported TGI = > 100 µM

molecule "COc1ccc2cc(C(=O)NCCCNC(=O)c3ccc4cc(OC)ccc4c3)ccc2c1" , TGI observed: > 100 µM

Record summary for "Cc1c2c(cc3c(=O)ccn(CCN(C)C)c13)c(=O)ccn2CCN(C)C" : reported TGI = 42.3 µM

CC(C)C1CC[C@H](C)C[C@@H]1OC(=O)C(C(=O)O[C@H]1C[C@@H](C)CCC1C(C)C)C(O)[C@@H]1OC(C)(C)O[C@H]1C1COC(C)(C)O1 (stereo not given in full) has a reported TGI of 31.9 µM

Item: O=C(CC1C=CCS1(=O)=O)NCc1ccccc1 (stereo not given) | TGI: > 100 µM

Entry "CC(C)OC(=O)[C@@H](O)[C@H](CO)C1=CC([Si](C)(C)c2ccccc2)=CON1" ; TGI = > 100 µM
